The origin of these recorded values is patent US20100129369A1.

AVG CPM, 3H-thymidine incorporation in MKN45 cells, Ab 2.6 ng/mL values, listed per item
Molecular target: human c-Met (human, UniProt P08581 25-1390)
Sequence (P08581 25-1390): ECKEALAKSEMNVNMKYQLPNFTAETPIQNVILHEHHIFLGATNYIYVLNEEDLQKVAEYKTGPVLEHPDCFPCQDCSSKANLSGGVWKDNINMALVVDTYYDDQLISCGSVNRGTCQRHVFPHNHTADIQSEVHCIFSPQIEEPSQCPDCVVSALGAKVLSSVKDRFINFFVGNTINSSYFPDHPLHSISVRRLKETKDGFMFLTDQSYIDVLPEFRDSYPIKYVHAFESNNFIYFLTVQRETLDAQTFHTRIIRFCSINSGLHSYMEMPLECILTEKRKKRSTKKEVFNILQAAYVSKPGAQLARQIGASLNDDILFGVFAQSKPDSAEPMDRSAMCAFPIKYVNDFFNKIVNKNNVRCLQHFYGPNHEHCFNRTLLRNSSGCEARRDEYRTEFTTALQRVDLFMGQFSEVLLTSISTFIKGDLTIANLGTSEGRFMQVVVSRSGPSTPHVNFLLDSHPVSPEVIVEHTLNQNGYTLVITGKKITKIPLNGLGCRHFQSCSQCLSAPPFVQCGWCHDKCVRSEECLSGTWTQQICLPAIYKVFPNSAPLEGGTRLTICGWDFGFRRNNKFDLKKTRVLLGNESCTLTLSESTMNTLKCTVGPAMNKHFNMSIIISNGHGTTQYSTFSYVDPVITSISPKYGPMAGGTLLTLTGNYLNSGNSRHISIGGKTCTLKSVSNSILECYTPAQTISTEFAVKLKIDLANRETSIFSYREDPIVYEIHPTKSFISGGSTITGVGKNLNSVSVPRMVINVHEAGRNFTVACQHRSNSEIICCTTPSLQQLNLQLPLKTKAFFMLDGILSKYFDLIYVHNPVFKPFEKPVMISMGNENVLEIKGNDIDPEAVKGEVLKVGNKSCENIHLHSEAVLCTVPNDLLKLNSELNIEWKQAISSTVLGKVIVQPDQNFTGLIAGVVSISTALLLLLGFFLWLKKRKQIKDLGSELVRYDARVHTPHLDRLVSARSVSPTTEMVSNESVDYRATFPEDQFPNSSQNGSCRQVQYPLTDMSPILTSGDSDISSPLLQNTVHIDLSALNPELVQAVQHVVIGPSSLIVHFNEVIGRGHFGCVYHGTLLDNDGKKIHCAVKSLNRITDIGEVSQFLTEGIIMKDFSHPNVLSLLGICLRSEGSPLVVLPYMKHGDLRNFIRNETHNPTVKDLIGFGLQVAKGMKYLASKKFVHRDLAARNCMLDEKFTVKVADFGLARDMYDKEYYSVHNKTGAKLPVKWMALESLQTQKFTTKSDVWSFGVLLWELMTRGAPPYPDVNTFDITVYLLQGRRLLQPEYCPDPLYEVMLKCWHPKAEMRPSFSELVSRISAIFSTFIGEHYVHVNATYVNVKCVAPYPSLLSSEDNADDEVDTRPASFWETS
Experiment: cell-based or functional assay
Please reply with the bare figure in CPM and do not write the unit itself.

Solved entries:
| binder | unit-descriptor | numeric-result |
| --- | --- | --- |
| D11-S17Y (antibody, human IgG2, kappa, V domains shown, Human engineered IgG2 kappa c-Met antibody; also called D11-S17Y IgG2) VH: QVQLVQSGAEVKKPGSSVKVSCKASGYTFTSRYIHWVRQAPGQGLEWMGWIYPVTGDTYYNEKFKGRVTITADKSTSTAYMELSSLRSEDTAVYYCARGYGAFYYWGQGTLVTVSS VL: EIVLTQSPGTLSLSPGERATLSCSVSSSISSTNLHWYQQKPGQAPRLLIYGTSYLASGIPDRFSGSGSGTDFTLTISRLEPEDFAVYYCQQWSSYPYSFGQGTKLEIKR | CPM | 49900 |
| D11-8B8 (antibody, human IgG2, kappa, V domains shown, Human engineered IgG2 kappa c-Met antibody; also called Mab D11-8B8; D11-8B8 IgG2) VH: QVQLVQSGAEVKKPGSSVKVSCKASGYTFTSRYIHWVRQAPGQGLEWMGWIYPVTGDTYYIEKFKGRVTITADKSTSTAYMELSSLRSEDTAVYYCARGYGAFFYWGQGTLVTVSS VL: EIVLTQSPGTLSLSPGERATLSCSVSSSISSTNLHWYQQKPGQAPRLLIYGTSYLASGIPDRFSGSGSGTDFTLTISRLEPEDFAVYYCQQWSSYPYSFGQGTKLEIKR | CPM | 44700 |
| C8-6 (antibody, human IgG2, kappa, V domains shown, Named IgG4 kappa; also called C8-6 IgG4) VH: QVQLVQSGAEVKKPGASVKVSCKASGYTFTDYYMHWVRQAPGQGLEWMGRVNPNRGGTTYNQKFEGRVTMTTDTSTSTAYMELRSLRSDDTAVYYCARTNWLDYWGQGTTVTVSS VL: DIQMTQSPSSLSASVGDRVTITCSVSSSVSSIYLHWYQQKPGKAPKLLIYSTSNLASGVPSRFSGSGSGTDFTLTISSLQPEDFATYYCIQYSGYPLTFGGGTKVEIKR | CPM | 54600 |
| D11-C27G3 (antibody, human IgG2, kappa, V domains shown, Human engineered IgG2 kappa c-Met antibody; also called D11-27G3; D11-C27G3 IgG2) VH: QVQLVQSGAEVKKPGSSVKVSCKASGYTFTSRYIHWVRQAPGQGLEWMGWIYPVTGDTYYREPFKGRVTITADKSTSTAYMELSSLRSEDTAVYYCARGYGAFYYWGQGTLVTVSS VL: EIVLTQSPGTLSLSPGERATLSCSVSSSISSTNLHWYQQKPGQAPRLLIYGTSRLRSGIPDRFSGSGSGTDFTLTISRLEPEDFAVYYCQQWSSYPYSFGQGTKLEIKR | CPM | 47000 |

Moving on to another binder below.
Need AVG CPM, 3H-thymidine incorporation in MKN45 cells, Ab 2.6 ng/mL, item C8-co-16 (antibody, human IgG2, kappa, V domains shown, Named IgG4 kappa; also called C8-co-16 IgG4) VH: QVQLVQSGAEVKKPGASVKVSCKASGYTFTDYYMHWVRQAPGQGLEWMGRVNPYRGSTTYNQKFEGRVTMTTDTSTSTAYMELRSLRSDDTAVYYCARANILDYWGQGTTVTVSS VL: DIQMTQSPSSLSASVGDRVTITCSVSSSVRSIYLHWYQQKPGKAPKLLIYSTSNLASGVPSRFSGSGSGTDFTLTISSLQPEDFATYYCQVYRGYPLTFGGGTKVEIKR 53500
